method.description: Hygroscopicity test
Type: physicochemical
test.settings: relative humidity 97%, 30° C., one week
parameter.measured: Weight difference (%)
Numeric only. Scale: %

Completed entries (count: 4):
| compound | Weight difference (%) |
| --- | --- |
| COC1(c2cccc(F)c2F)CCNC1.O=C(O)C[C@H](O)C(=O)O (centres unmarked) [Example 13] | 34.37 |
| COC1(c2cccc(F)c2F)CCNC1.Cl (centres unmarked) [Example 8] | 99.12 |
| CO[C@]1(c2cccc(F)c2F)CCNC1.O=C(O)/C=C/C(=O)O [Example 7] | 0.16 |
| COC1(c2cccc(F)c2F)CCNC1.O=C(O)C(=O)O (centres unmarked) [Reference Example 19, reference compound] | 0.26 |

# next compound below
Entry COC1(c2cccc(F)c2F)CCNC1.O=C(O)C(O)C(O)C(=O)O (centres unmarked) [Example 9] : reported Weight difference (%) = ?
2.39
